src = PubChem BioAssay (NCI)

As shown below, each of these compounds has a reported GI50 value.
- System: MALME-3M melanoma
- assay.comment: NCI tumour cell line growth inhibition, 48 h
result.type: GI50

> print(dat)
                                   compound  result.type    result
1  c1ccc(C2ONC3=NCCN32)cc1 (stereo unspecified)         GI50   62.9 µM
2  CC1=C([Se]CC(OC(=O)CC[Se]c2ccccc2)C(=O)NC(C)(C)C)C(=O)c2ccccc2C1=O (stereo unspecified)         GI50    2.1 µM
3  CC[O-].CC[O-].O=C([CH-]C(=O)c1ccccc1)CCCCCCCCC(=O)[CH-]C(=O)c1ccccc1.[Ti+4]         GI50   73.6 µM
4  COc1cc(/C=C/C(=O)/C=C/c2cc(OC)c3c(c2)OCO3)cc2c1OCO2         GI50  > 100 µM
5                O=C(Nc1cccc(Cl)c1)Nn1cnnc1         GI50   > 50 µM
6  CC(=O)c1c(-c2cccc3ccccc23)c(C#N)c(=S)n(C2OC(CO)C(O)C(O)C2O)c1C (stereo unspecified)         GI50  > 100 µM

----------
As shown below, each of these compounds has a reported TGI value.
- System: OVCAR-4 ovarian
- assay.comment: NCI tumour cell line growth inhibition, 48 h
result.type: TGI

> print(dat)
                                    compound  result.type     result
 1  C#CCNC(CSSCC(N)C(=O)O)C(=O)O (stereo unspecified)          TGI   > 100 µM
 2           COc1cc(C)ccc1C(=O)c1ccc(C)cc1OC          TGI   > 100 µM
 3            CCC/C(Cl)=N\OC(=O)Nc1ccc(F)cc1          TGI    30.8 µM
 4  [N-]=[N+]=Nc1c(Cc2ccccc2)c(Cl)nc2ccccc12          TGI   > 100 µM
 5       O=C(N/N=C/c1ccccc1O)N/N=C/c1ccccc1O          TGI   > 100 µM
 6  CC1=C(C(=O)Nc2ccccc2C)C(c2ccc(Cl)cc2)C(C(=O)Nc2ccccc2C)=C(C)N1          TGI   > 100 µM
 7      O=c1cc(-c2cccs2)[nH]c2cc3c(cc12)OCO3          TGI  > 22.2 µM
 8  CCSC1=NC2C(N(CC)C(=O)N2CC)N1/N=C/C=C/c1ccccc1[N+](=O)[O-] (stereo unspecified)          TGI   > 100 µM
 9   C=CCSC1=N/C(=C\c2ccc(Cl)cc2)C(=O)N1CC=C          TGI    94.7 µM
10  CCCCN(CCCC)Cc1cc(Nc2ccnc3cc(Cl)ccc23)ccc1O          TGI   > 100 µM
11  O=S(=O)(Nc1ccc(Br)cc1)c1ccc(-c2cnc(C3CC3)o2)cc1          TGI      18 µM

----------
- Test system: SF-539 CNS
- assay.comment: NCI tumour cell line growth inhibition, 48 h
As shown below, each of these compounds has a reported TGI value.
result.type: TGI (µM)

> print(dat)
                                    compound  result.type  reading.unit  sign.qualifier  numeric.result
 1  CCC1(O)C(=O)OCc2c1cc1n(c2=O)Cc2cc3ccccc3nc2-1 (stereo not given)          TGI            µM               >             100
 2  CCN1C(=O)N(CC)C2C1NN=c1s/c(=C\c3ccc(Cl)cc3Cl)c(=O)n12 (stereo not given)          TGI            µM               =          0.0698
 3  O=C1OCC2=C1C(c1cccc(F)c1)c1cc3c(cc1N2CCO)OCO3 (stereo not given)          TGI            µM               =            3.61
 4  O=C1Nc2ccccc2C1(O)C/C(=N/O)c1ccc2ccccc2c1 (stereo not given)          TGI            µM               >             100
 5  COc1cc2c(c3c1c(=O)c1ccccc1n3C)C=CC1(CCCC1)O2          TGI            µM               =            17.3
 6  COc1cccc(N2C(=O)CSC2c2cccc(Oc3ccccc3)c2)c1 (stereo not given)          TGI            µM               =            15.9
 7                O=C(Nc1cccc(Cl)c1)Nn1cnnc1          TGI            µM               >             100
 8           c1ccc(NN(Cc2cnccn2)c2ccccc2)cc1          TGI            µM               >             100
 9  O=C(Nc1ccc(N2C(=O)CSC2c2ccccc2O)cc1)c1ccc(N2C(=O)CSC2c2ccccc2O)cc1 (stereo not given)          TGI            µM               >             100
10  CC1=C2C(=C[C@@](C)(CO)[C@@H]2OC(=O)N(C)CCN(C)C(=O)OC(C)(C)C)C(=O)[C@](C)(O)C12CC2          TGI            µM               =            21.2
